Reference source for all entries: PubChem BioAssay AID1159580

# assay.notes: chemical genetic growth profiling, strain panel (AID 1159580);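 note: tested at 20 µM; growth read once vehicle control cultures reached saturation at 30 °C; 1 = growth at the plate median or of vehicle wells; lower values mean less growth of the strain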
# setup.conditions: S. cerevisiae deletion strains, growth OD, locus YNL233W, strain BNI4, active compounds read low
In all, about 5,500 compounds went through this assay and about 2,000 (36%) were called active. About 18% were inconclusive and are not listed. The list shows a part of the results.

- molecule: "CCCN(CCC)S(=O)(=O)c1ccc(C(=O)O)cc1"
  normalized growth: "0.999 (inactive)"
- molecule: "COc1ccccc1OCC(O)CO (centres undefined)"
  normalized growth: "1.01 (inactive)"
- molecule: "CCC(C)C(=O)OC1[C@@H]2CC3=C4CC(=O)O[C@@H](c5ccoc5)[C@]4(C)CCC3[C@@](C)(C2=O)[C@@H](CC(=O)OC)C1(C)C (some centres undefined)"
  normalized growth: "0.995 (inactive)"
- molecule: "CO[C@H]1CC(O[C@@H]2/C(C)=C/C[C@@H]3C[C@@H](C[C@]4(CC[C@H](C)[C@@H](C5CCCCC5)O4)O3)OC(=O)[C@@H]3C=C(C)/C(=N\\O)[C@H]4OC/C(=C\\C=C\\[C@@H]2C)[C@]43O)O[C@@H](C)C1O (some centres undefined)"
  normalized growth: "0.971 (inactive)"

====

# assay.notes: chemical genetic growth profiling, strain panel (AID 1159580)
# setup.conditions: S. cerevisiae deletion strains, growth OD, locus YER016W, strain bim1, active compounds read low
Among all 5,500 compounds or so, about 2,000 (36%) were called active. About 18% were inconclusive and are not listed. This is one part of the list.
Label TRUE when normalized growth is strictly below 1; at or above that, label FALSE.

- compound.structure.string: "C=C1c2c(Cl)ccc(O)c2C(O)=C2C(=O)[C@]3(O)C(O)=C(C(N)=O)C(=O)[C@@H](N(C)C)[C@@H]3[C@@H](O)[C@H]12"
  class.label: "TRUE"
- compound.structure.string: "C=C1C[C@]23C[C@@]1(O)CC[C@H]2[C@@]12C=C[C@H](O)[C@@](C)(C(=O)O1)[C@H]2[C@@H]3C(=O)O"
  class.label: "FALSE"
- compound.structure.string: "CC1=CC(=O)c2c(O)cccc2C1=O"
  class.label: "TRUE"
- compound.structure.string: "CC(=O)Nc1ccc(S(=O)(=O)Nc2onc(C)c2C)cc1"
  class.label: "TRUE"
- compound.structure.string: "Cc1cc(=O)oc2cc(O)cc(O)c12"
  class.label: "TRUE"

====

# assay.notes: chemical genetic growth profiling, strain panel (AID 1159580)
# setup.conditions: S. cerevisiae deletion strains, growth OD, locus YOL078W, strain AVO1, active compounds read low
The whole screen tested about 5,500 compounds, of which about 2,000 (36%) were called active. Roughly 18% stayed inconclusive and do not appear here. This is one part of the list.

- compound: "N#CSCC(=O)c1ccccc1"
  normalized growth: 0.107
- compound: "O=C(Nc1cccc(Cl)c1)O/N=C1\\CCCc2occc21"
  normalized growth: 0.923
- compound: "Cc1onc(-c2c(F)cccc2Cl)c1/C(N)=N\\OC(=O)c1ccc(C(C)(C)C)cc1"
  normalized growth: 0.982
- compound: "COc1c(Br)csc1C(=O)O/N=C(/N)c1cc(C(F)(F)F)cc(C(F)(F)F)c1"
  normalized growth: 0.986
- compound: "O=[N+]([O-])c1cccc(C2CC(c3ccccc3)=Nc3ccccc3S2)c1 (centres undefined)"
  normalized growth: 0.952
- compound: "NC(=S)N/N=C1/CCCc2ccccc21"
  normalized growth: 0.925
- compound: "Cc1cc(/C(N)=N\\OC(=O)C(C)(C)C)cc(/C(N)=N\\OC(=O)C(C)(C)C)c1"
  normalized growth: 0.992
- compound: "O=S(=O)(Nc1ccccc1Oc1ccccc1)c1ccc(-c2ccno2)s1"
  normalized growth: 0.963
- compound: "O=S(=O)(Oc1ccc(-c2csnn2)cc1)c1ccccc1Cl"
  normalized growth: 0.974
- compound: "O=C(Nc1ccc(F)cc1F)c1cc(Cl)c(-n2cccc2)c(Cl)c1"
  normalized growth: 0.981
- compound: "CC(=O)c1ccc(Cl)c(N=Cc2cc(Br)cc(Br)c2O)c1"
  normalized growth: 0.0827
- compound: "COC(=O)c1sccc1NS(=O)(=O)c1cc(Cl)cc(Cl)c1"
  normalized growth: 0.963
- compound: "O=C(NOC(=O)c1ccccc1)c1ccccc1"
  normalized growth: 0.0891
- compound: "Cc1ccc(-c2csc(-c3ccncc3)n2)cc1"
  normalized growth: 0.866

====

Documented normalized growth across a set of compounds
# assay.notes: chemical genetic growth profiling, strain panel (AID 1159580);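 note: tested at 20 µM; growth read once vehicle control cultures reached saturation at 30 °C; 1 = growth at the plate median or of vehicle wells; lower values mean less growth of the strain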
# setup.conditions: S. cerevisiae deletion strains, growth OD, locus YOR061W, strain CKA2, active compounds read low
The whole screen tested about 5,500 compounds, of which about 2,000 (36%) were called active. Not shown: some 18% with an inconclusive outcome. The list shows a part of the results.
readout: normalized growth

- compound: "CC(C)CCCC(C)C1CCC2C3CC(=O)[C@H]4C[C@@H](O)CC[C@]4(C)C3CC[C@]12C (some centres not stated)"
  observed.result: "1.02 (inactive)"
- compound: "OC[C@H]1O[C@@](CO)(O[C@@H]2O[C@H](CO)[C@@H](O)[C@H](O)[C@H]2O)[C@@H](O[C@@H]2O[C@H](CO)[C@@H](O)[C@H](O)[C@H]2O)[C@@H]1O"
  observed.result: "1.04 (inactive)"
- compound: "CC(C)CCCC(C)[C@H]1CCC2C3CC=C4C[C@@H](O)CC[C@]4(C)C3CC[C@@]21C (some centres not stated)"
  observed.result: "1.01 (inactive)"
- compound: "CC(C)CCCC(C)[C@H]1CCC2C3CC[C@@H]4C[C@H](O)CC[C@]4(C)C3CC[C@@]21C (some centres not stated)"
  observed.result: "1.01 (inactive)"
- compound: "CN(C)[C@@H]1C(=O)C(C(N)=O)=C(O)[C@@]2(O)C(=O)C3=C(O)c4c(O)cccc4[C@@](C)(O)[C@H]3[C@H](O)[C@@H]12"
  observed.result: "1 (inactive)"
- compound: "CC(C)CCCC(C)C1CCC2C3=CC[C@H]4C[C@@H](O)CC[C@]4(C)C3CC[C@@]21C (some centres not stated)"
  observed.result: "1.01 (inactive)"
- compound: "CN(C)[C@@H]1C(=O)C(C(N)=O)=C(O)[C@@]2(O)C(=O)C3=C(O)c4c(O)ccc(Cl)c4[C@@H](O)[C@H]3C[C@@H]12"
  observed.result: "1 (inactive)"

====

# assay.notes: chemical genetic growth profiling, strain panel (AID 1159580);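 note: tested at 20 µM; growth read once vehicle control cultures reached saturation at 30 °C; 1 = growth at the plate median or of vehicle wells; lower values mean less growth of the strain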
# setup.conditions: S. cerevisiae deletion strains, growth OD, locus YCL011C, strain gbp2, active compounds read low
Among all 5,500 compounds or so, about 2,000 (36%) were called active. About 18% were inconclusive and are not listed. Some of the results follow.
Lab note: compare normalized growth with 1, writing Fulfilled if less and Not fulfilled if equal or more.

- compound.structure.string: "CC1=CC(=O)c2ccccc2C1=O"
  class.label: "Fulfilled"
- compound.structure.string: "CC1=CC(=O)c2c(O)cccc2C1=O"
  class.label: "Fulfilled"
- compound.structure.string: "C=C1c2c(Cl)ccc(O)c2C(O)=C2C(=O)[C@]3(O)C(O)=C(C(N)=O)C(=O)[C@@H](N(C)C)[C@@H]3[C@@H](O)[C@H]12"
  class.label: "Fulfilled"
- compound.structure.string: "CN(C)[C@@H]1C(=O)C(C(N)=O)=C(O)[C@@]2(O)C(=O)C3=C(O)c4c(O)ccc(Cl)c4[C@@H](O)[C@H]3C[C@@H]12"
  class.label: "Not fulfilled"
- compound.structure.string: "CN(C)[C@@H]1C(=O)C(C(=O)NCN2CCCC2)=C(O)[C@@]2(O)C(=O)C3=C(O)c4c(O)cccc4[C@@](C)(O)[C@H]3C[C@@H]12"
  class.label: "Fulfilled"

====

# assay.notes: chemical genetic growth profiling, strain panel (AID 1159580);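 note: tested at 20 µM; growth read once vehicle control cultures reached saturation at 30 °C; 1 = growth at the plate median or of vehicle wells; lower values mean less growth of the strain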
# setup.conditions: S. cerevisiae strains, growth OD, strain wild type
Screen size: about 5,500 compounds; about 2,000 (36%) were called active. Not shown: some 18% with an inconclusive outcome. Rule as the data show it: active = normalized growth mostly below about 0.91 (no sharp cut-off); inconclusive = no clear call, values can overlap the other calls; inactive = mostly above about 0.92. This is one part of the list.
Outcome codes: y = active, n = inactive

- molecule: "N#CCCC1(CCC#N)c2ccccc2-c2ccccc21"
  class.label: "n"
- molecule: "CC(C)=CCc1c2c(c3occ(-c4ccc(O)c(O)c4)c(=O)c3c1O)C=CC(C)(C)O2"
  class.label: "y"
- molecule: "NS(=O)(=O)c1cc2c(cc1Cl)NC(CSCc1ccccc1)=NS2(=O)=O"
  class.label: "n"
- molecule: "CCCSc1ccc2nc(NC(=O)OC)[nH]c2c1"
  class.label: "n"
- molecule: "CCCc1c(OCCCCc2nn[nH]n2)ccc(C(C)=O)c1O"
  class.label: "n"
- molecule: "Cc1cc(=O)[nH]c(=S)[nH]1"
  class.label: "n"
- molecule: "CNNC"
  class.label: "n"
- molecule: "CC(=O)O[C@@H]1CC[C@@]2(C)C(C[C@@H](OC(C)=O)[C@@]3(C)C4=CC(=O)O[C@@H](c5ccoc5)[C@]4(C)CCC23)C1(C)C (some centres undefined)"
  class.label: "n"
- molecule: "CC(=O)OC1CCC2(C)C(CC(OC(C)=O)C3(C)C4=CC(=O)OC(c5ccoc5)C4(C)CCC23)C1(C)C (centres undefined)"
  class.label: "n"
- molecule: "NC(Cn1ccc(=O)c(O)c1)C(=O)O (centres undefined)"
  class.label: "n"
- molecule: "Cc1ccc(Sc2ccc([N+](=O)[O-])cc2/C=C2\\SC(=S)NC2=O)cc1"
  class.label: "n"
- molecule: "C=C1c2cccc(O)c2C(O)=C2C(=O)[C@]3(O)C(O)=C(C(N)=O)C(=O)[C@@H](N(C)C)[C@@H]3[C@@H](O)[C@H]12"
  class.label: "n"
- molecule: "CCCc1cc(=O)[nH]c(=S)[nH]1"
  class.label: "n"
- molecule: "O=C(O)C1C2CCC1C(O)C2 (centres undefined)"
  class.label: "n"
- molecule: "OC[C@H]1O[C@@](CO)(O[C@@H]2O[C@H](CO)[C@@H](O)[C@H](O)[C@H]2O)[C@@H](O[C@@H]2O[C@H](CO)[C@@H](O)[C@H](O)[C@H]2O)[C@@H]1O"
  class.label: "n"
- molecule: "C=C1c2c(Cl)ccc(O)c2C(O)=C2C(=O)[C@]3(O)C(O)=C(C(N)=O)C(=O)[C@@H](N(C)C)[C@@H]3[C@@H](O)[C@H]12"
  class.label: "n"
- molecule: "CCOC(=O)[C@H](CCc1ccccc1)N[C@@H](C)C(=O)N1CCC[C@H]1C(=O)O"
  class.label: "n"
- molecule: "NC(=O)NC(=O)Cc1ccccc1"
  class.label: "n"
- molecule: "CSc1sc(C#N)c2c1C(O)CCC2 (centres undefined)"
  class.label: "n"
- molecule: "CO[C@H]1CC(O[C@@H]2/C(C)=C/C[C@@H]3C[C@@H](C[C@]4(CC[C@H](C)[C@@H](C5CCCCC5)O4)O3)OC(=O)[C@@H]3C=C(C)/C(=N\\O)[C@H]4OC/C(=C\\C=C\\[C@@H]2C)[C@]43O)O[C@@H](C)C1O (some centres undefined)"
  class.label: "n"
- molecule: "CCC(C)C(=O)OC1[C@@H]2CC3=C4CC(=O)O[C@@H](c5ccoc5)[C@]4(C)CCC3[C@@](C)(C2=O)[C@@H](CC(=O)OC)C1(C)C (some centres undefined)"
  class.label: "n"
- molecule: "CN(C)c1ccc(O)c2c1C[C@H]1C[C@H]3[C@H](N(C)C)C(=O)C(C(N)=O)=C(O)[C@@]3(O)C(=O)C1=C2O"
  class.label: "n"
- molecule: "Cc1cc(C)c(Cn2nc(C(C)(C)C)cc2C(=O)Nc2cccc(C(F)(F)F)c2)c(C)c1"
  class.label: "n"
- molecule: "CC(C)CC(NC(=O)OCC1c2ccccc2-c2ccccc21)C(=O)O (centres undefined)"
  class.label: "n"
- molecule: "N[C@@H](CCC(=O)N[C@@H](CS)C(=O)NCC(=O)O)C(=O)O"
  class.label: "n"
- molecule: "CC(=O)O[C@H]1CC[C@@]2(C)C(=CC(=O)C3C4CCC(C(C)CCCC(C)C)[C@@]4(C)CCC32)C1 (some centres undefined)"
  class.label: "n"
- molecule: "CN(C)[C@@H]1C(=O)C(C(N)=O)=C(O)[C@@]2(O)C(=O)C3=C(O)c4c(O)cccc4[C@@](C)(O)[C@H]3[C@H](O)[C@@H]12"
  class.label: "n"
- molecule: "CCN1CCN(C(=O)NC(C(=O)N[C@@H]2C(=O)N3[C@@H]2SC(C)(C)[C@@H]3C(=O)O)c2ccccc2)C(=O)C1=O (some centres undefined)"
  class.label: "n"
- molecule: "NC(=S)CSc1ccccc1"
  class.label: "y"
